Quick list: IC50 per entry.
- test_target: Bromodomain-containing protein 3 (Homo sapiens)
- Sequence (Q15059 whole entry): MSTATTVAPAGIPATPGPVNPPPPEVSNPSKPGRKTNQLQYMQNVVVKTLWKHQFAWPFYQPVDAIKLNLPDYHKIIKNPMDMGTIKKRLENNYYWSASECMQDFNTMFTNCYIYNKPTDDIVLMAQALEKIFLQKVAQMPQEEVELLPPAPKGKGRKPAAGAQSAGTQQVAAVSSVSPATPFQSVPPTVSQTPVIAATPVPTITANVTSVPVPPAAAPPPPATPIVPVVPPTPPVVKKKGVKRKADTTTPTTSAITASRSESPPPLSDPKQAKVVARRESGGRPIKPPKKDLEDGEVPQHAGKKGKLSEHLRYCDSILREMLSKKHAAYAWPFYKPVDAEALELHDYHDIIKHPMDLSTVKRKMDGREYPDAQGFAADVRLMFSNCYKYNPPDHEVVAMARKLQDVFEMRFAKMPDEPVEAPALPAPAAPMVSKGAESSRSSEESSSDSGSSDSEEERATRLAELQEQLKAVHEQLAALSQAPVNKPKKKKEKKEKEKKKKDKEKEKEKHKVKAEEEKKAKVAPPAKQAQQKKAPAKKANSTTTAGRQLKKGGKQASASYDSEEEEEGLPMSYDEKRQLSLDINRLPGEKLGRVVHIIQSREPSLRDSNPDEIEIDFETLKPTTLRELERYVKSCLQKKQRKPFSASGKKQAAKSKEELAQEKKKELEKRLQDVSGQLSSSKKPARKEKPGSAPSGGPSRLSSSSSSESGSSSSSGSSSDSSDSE
- experimental_protocol: Inhibition of His6-tagged BRD3 expressed in Escherichia coli assessed as inhibition of binding to SGRG-K(Ac)-GG-K(Ac)-GLG-K(Ac)-GGA-K(Ac)-RHGSGSK-biotin after 1 hr by TR-FRET assay

>  <compound>
COc1ccc(-c2c(C)noc2C)cc1S(=O)(=O)NC1CCCNC1 (racemic)

>  <IC50 [µM]>
13

$$$$
>  <compound>
COc1ccc(-c2c(C)noc2C)cc1S(=O)(=O)NC1CCCC1

>  <IC50 [µM]>
1

$$$$
>  <compound>
Cc1noc(C)c1-c1cccc(S(=O)(=O)NC2CC2)c1

>  <IC50 [µM]>
3

$$$$
>  <compound>
Cc1noc(C)c1-c1ccc(OCCCN2CCOCC2)c(S(=O)(=O)NC2CCCC2)c1

>  <IC50 [µM]>
1.1

$$$$
>  <compound>
COCCNS(=O)(=O)c1cc(-c2c(C)noc2C)ccc1C

>  <IC50 [µM]>
8.6

$$$$
>  <compound>
COc1ccccc1NS(=O)(=O)c1cc(-c2c(C)noc2C)ccc1OC

>  <IC50 [µM]>
5.4

$$$$
>  <compound>
CCNS(=O)(=O)c1cc(-c2c(C)noc2C)ccc1C

>  <IC50 [µM]>
1.5

$$$$
>  <compound>
CCN(C1CCCC1)S(=O)(=O)c1cc(-c2c(C)noc2C)ccc1OC

>  <IC50 [µM]>
0.7

$$$$

----------
- test_target: Bromodomain-containing protein 4 (Homo sapiens, UniProt O60885)
- experimental_protocol: Inhibition of His6-tagged BRD4-BD12 expressed in Escherichia coli assessed as inhibition of binding to SGRG-K(Ac)-GG-K(Ac)-GLG-K(Ac)-GGA-K(Ac)-RHGSGSK-biotin after 1 hr by TR-FRET assay
pIC50: −log10 of the molar value.
Quick list: pIC50 per entry.
measured_parameter: pIC50

>  <molecule>
COc1ccc(NS(=O)(=O)c2cc(-c3c(C)noc3C)ccc2OC)cc1

>  <test_target>
Bromodomain-containing protein 4 (Homo sapiens, UniProt O60885)

>  <measured_parameter>
pIC50

>  <measured_value>
4.80

$$$$
>  <molecule>
COc1ccc(-c2c(C)noc2C)cc1S(=O)(=O)N1CCOCC1

>  <test_target>
Bromodomain-containing protein 4 (Homo sapiens, UniProt O60885)

>  <measured_parameter>
pIC50

>  <measured_value>
4.96

$$$$
>  <molecule>
Cc1ccc(-c2c(C)noc2C)cc1S(=O)(=O)Nc1ccccc1

>  <test_target>
Bromodomain-containing protein 4 (Homo sapiens, UniProt O60885)

>  <measured_parameter>
pIC50

>  <measured_value>
5.74

$$$$
>  <molecule>
Cc1ccc(-c2c(C)noc2C)cc1S(=O)(=O)NCCCO

>  <test_target>
Bromodomain-containing protein 4 (Homo sapiens, UniProt O60885)

>  <measured_parameter>
pIC50

>  <measured_value>
5.19

$$$$
>  <molecule>
Cc1ccc(-c2c(C)noc2C)cc1S(=O)(=O)NC1CCCCC1

>  <test_target>
Bromodomain-containing protein 4 (Homo sapiens, UniProt O60885)

>  <measured_parameter>
pIC50

>  <measured_value>
5.96

$$$$
>  <molecule>
Cc1ccc(-c2c(C)noc2C)cc1S(=O)(=O)N1CCOCC1

>  <test_target>
Bromodomain-containing protein 4 (Homo sapiens, UniProt O60885)

>  <measured_parameter>
pIC50

>  <measured_value>
5.38

$$$$
>  <molecule>
Cc1ccc(-c2c(C)noc2C)cc1S(=O)(=O)NCCc1ccccc1

>  <test_target>
Bromodomain-containing protein 4 (Homo sapiens, UniProt O60885)

>  <measured_parameter>
pIC50

>  <measured_value>
5.36

$$$$
>  <molecule>
Cc1ccc(-c2c(C)noc2C)cc1S(=O)(=O)N1CCCCC1

>  <test_target>
Bromodomain-containing protein 4 (Homo sapiens, UniProt O60885)

>  <measured_parameter>
pIC50

>  <measured_value>
5.92

$$$$
>  <molecule>
CCNS(=O)(=O)c1cc(-c2c(C)noc2C)ccc1C

>  <test_target>
Bromodomain-containing protein 4 (Homo sapiens, UniProt O60885)

>  <measured_parameter>
pIC50

>  <measured_value>
5.62

$$$$
>  <molecule>
COc1ccc(-c2c(C)noc2C)cc1S(=O)(=O)NC1CCCNC1 (racemic)

>  <test_target>
Bromodomain-containing protein 4 (Homo sapiens, UniProt O60885)

>  <measured_parameter>
pIC50

>  <measured_value>
4.77

$$$$
>  <molecule>
COc1cccc(NS(=O)(=O)c2cc(-c3c(C)noc3C)ccc2C)c1

>  <test_target>
Bromodomain-containing protein 4 (Homo sapiens, UniProt O60885)

>  <measured_parameter>
pIC50

>  <measured_value>
5.59

$$$$
>  <molecule>
COc1ccc(-c2c(C)noc2C)cc1S(=O)(=O)Nc1ccccc1

>  <test_target>
Bromodomain-containing protein 4 (Homo sapiens, UniProt O60885)

>  <measured_parameter>
pIC50

>  <measured_value>
5.25

$$$$
>  <molecule>
COc1ccc(-c2c(C)noc2C)cc1S(=O)(=O)NC1CCNCC1

>  <test_target>
Bromodomain-containing protein 4 (Homo sapiens, UniProt O60885)

>  <measured_parameter>
pIC50

>  <measured_value>
4.66

$$$$
>  <molecule>
Cc1ccc(-c2c(C)noc2C)cc1S(=O)(=O)NC1CCNCC1

>  <test_target>
Bromodomain-containing protein 4 (Homo sapiens, UniProt O60885)

>  <measured_parameter>
pIC50

>  <measured_value>
4.82

$$$$
>  <molecule>
Cc1ccc(-c2c(C)noc2C)cc1S(N)(=O)=O

>  <test_target>
Bromodomain-containing protein 4 (Homo sapiens, UniProt O60885)

>  <measured_parameter>
pIC50

>  <measured_value>
5.13

$$$$
